Source listed as patent US20180185504A1.

# target-or-test-system: T1, hPRLR.mFc (soluble dimeric human PRLR) (human)
# T1 construct: dimeric PRLR construct
# T1 chain: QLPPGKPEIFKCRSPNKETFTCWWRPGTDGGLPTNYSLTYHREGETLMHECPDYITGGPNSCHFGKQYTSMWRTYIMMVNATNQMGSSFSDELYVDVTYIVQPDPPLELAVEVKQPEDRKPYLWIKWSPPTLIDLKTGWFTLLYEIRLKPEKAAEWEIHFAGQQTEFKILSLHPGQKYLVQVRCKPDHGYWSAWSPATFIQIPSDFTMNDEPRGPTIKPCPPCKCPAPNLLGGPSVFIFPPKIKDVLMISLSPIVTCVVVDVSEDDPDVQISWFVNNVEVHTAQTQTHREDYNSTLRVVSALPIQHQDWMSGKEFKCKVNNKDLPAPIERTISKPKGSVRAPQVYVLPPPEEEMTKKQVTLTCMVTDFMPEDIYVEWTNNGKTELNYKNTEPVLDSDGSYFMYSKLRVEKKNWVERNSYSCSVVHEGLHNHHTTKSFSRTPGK
# protocol-notes: SPR (Biacore), antibody capture, 37 C
recorded-endpoint: koff (s⁻¹)
# value in s⁻¹; strip the unit string

These solved cases illustrate the format of a correct answer.
1. H1H6967N (antibody, human IgG1, V domains shown, also called H2M6967N) VH: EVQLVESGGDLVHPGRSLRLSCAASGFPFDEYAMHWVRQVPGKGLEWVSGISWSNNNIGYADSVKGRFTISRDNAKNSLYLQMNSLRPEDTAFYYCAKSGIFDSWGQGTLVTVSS VL: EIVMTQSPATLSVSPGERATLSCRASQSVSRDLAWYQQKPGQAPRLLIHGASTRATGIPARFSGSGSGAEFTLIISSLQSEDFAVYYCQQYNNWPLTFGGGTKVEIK = 9.73e-05
2. H1H6953N (antibody, human IgG1, V domains shown, also called H1M6953N) VH: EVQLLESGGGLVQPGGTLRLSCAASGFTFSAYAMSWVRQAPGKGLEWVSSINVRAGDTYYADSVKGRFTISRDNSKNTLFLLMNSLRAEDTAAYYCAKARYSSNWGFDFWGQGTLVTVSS VL: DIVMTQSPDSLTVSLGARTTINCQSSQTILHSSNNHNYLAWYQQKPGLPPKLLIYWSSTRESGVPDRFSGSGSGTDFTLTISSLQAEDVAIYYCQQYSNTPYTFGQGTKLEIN = 0.00017
3. H1H6795P (antibody, human IgG1, V domains shown, human IgG1 Fc (H1H)) VH: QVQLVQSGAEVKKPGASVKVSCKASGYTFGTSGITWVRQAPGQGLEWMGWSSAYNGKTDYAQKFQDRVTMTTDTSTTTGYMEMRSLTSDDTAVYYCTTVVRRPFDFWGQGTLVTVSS VL: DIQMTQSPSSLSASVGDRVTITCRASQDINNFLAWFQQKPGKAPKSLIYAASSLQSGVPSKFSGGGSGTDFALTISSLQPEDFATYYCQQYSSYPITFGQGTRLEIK = 7.77e-05

Please give the measured koff for this binder: H1H6976N (antibody, human IgG1, V domains shown, also called H2M6976N) VH: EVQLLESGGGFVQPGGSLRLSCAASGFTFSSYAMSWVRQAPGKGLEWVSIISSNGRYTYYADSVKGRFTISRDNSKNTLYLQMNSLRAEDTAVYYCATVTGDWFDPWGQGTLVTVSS VL: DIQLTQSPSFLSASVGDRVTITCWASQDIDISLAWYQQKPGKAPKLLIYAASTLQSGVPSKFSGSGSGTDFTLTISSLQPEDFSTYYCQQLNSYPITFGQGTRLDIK
0.00014

What koff value was documented for this binder, H1H6765P (antibody, human IgG1, V domains shown, human IgG1 Fc (H1H)) VH: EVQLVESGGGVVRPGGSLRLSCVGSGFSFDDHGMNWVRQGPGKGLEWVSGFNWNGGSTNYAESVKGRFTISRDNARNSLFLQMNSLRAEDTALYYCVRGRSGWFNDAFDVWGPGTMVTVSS VL: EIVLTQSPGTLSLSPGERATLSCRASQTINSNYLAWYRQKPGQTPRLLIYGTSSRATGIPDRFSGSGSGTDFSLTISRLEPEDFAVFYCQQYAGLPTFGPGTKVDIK ?
0.000103
